As shown below, each of these compounds has a reported z-score value.
Test: CREB reporter modulators under forskolin, primary screen, cell-based, PC12, CRE-LacZ reporter, forskolin-stimulated (AID 1146);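 note: PC12 cells with 6xCRE LacZ reporter stimulated by forskolin 10 µM; beta-galactosidase reporter signal reflecting CREB driven transcription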
Details: luminescence, 4.5 h, higher = more signal, called active from +8 up or from −8 down
MEASURED ENDPOINT: z-score

[
  {
    "COMPOUND": "COc1ccc(CCNC(=O)[C@@H]2c3ccccc3C(=O)N(Cc3ccccc3Cl)[C@H]2c2ccc(CO)cc2)cc1",
    "MEASURED ENDPOINT": "z-score",
    "VALUE REPORTED": -0.977
  },
  {
    "COMPOUND": "CCCC[C@@H]1C[C@H]1[C@@H](NC(=O)c1ccco1)c1ccccc1C(F)(F)F",
    "MEASURED ENDPOINT": "z-score",
    "VALUE REPORTED": 1.3
  },
  {
    "COMPOUND": "CC(C)N1C(=O)C[C@@](C(=O)NCC(F)(F)F)(c2ccc([N+](=O)[O-])cc2)[C@H]1c1ccc(CO)cc1",
    "MEASURED ENDPOINT": "z-score",
    "VALUE REPORTED": -1.24
  },
  {
    "COMPOUND": "CC1(C)C2C=C(C(O)C3C=CC4C(=O)NC(=O)C4N3Nc3ccc(Cl)cc3Cl)C[C@@H]1C2 (some centres undefined)",
    "MEASURED ENDPOINT": "z-score",
    "VALUE REPORTED": -0.0073
  }
]

====

Test: fission yeast growth modulation, primary screen, strain 972, OD600, 24 h, no modulator (AID 1090);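 note: basal condition with compound alone and no growth modifier present; test concentration not given here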
Conditions: S. pombe 972 growth, higher = more signal, called active from +8 up or from −8 down
Categories are defined by ranges of z-score, namely low range = under -0.4, mid range = from -0.4 up to 0.8, high range = 0.8 and over

[
  {
    "COMPOUND": "COc1cc2c(cc1O)C(c1cccs1)N(C)CC2 (centres undefined)",
    "CATEGORY LABEL": "high range"
  },
  {
    "COMPOUND": "C=C[C@H](CO)NS(=O)(=O)c1ccc(Br)cc1",
    "CATEGORY LABEL": "low range"
  },
  {
    "COMPOUND": "NC(=O)N1C(=O)C2C(C1=O)C1C=C(c3ccc(CO)cc3)C2C(c2cccs2)N1Cc1cccc(OC(F)(F)F)c1 (centres undefined)",
    "CATEGORY LABEL": "low range"
  },
  {
    "COMPOUND": "COc1ccc(CCNC(=O)[C@@]2(Sc3ccc(C)cc3)CC(=O)N(C(C)C)[C@@H]2c2ccc(CO)cc2I)cc1",
    "CATEGORY LABEL": "low range"
  },
  {
    "COMPOUND": "CC(C)NC(=O)[C@@]1(c2ccc([N+](=O)[O-])cc2)CC(=O)N(C2CCCCC2)[C@@H]1c1ccc(CO)cc1I",
    "CATEGORY LABEL": "mid range"
  },
  {
    "COMPOUND": "CCOC(=O)[C@H]1C/C=C/C[C@H](C(=O)OCC)C(=O)O[C@H]2[C@@H](OC)O[C@H](CO)[C@@H](OC(=O)c3c(OC)cccc3OC)[C@@H]2OC1=O",
    "CATEGORY LABEL": "low range"
  },
  {
    "COMPOUND": "CN(C)CCCC[C@@H]1NC(=O)[C@@H]2C[C@H](C(=O)NCCCCCCN)[C@H](c3cccc(OCCO)c3)N2C1=O",
    "CATEGORY LABEL": "low range"
  },
  {
    "COMPOUND": "COc1cc(COC(C)=O)ccc1OC(C)=O",
    "CATEGORY LABEL": "low range"
  },
  {
    "COMPOUND": "COC(=O)[C@@]1(Cc2ccc(OC)cc2)[C@H]2c3cc(C(=O)N4CCCC4)n(Cc4ccc(C)c(F)c4F)c3C[C@H]2CN1C(=O)c1ccccc1",
    "CATEGORY LABEL": "high range"
  },
  {
    "COMPOUND": "COc1ccc([Si](C)(C)[C@@H]2[C@@H](CCO)O[C@]3(C(=O)N(Cc4ccc(N(C=O)c5ccccc5)cc4)c4ccccc43)[C@H]2C)cc1",
    "CATEGORY LABEL": "mid range"
  },
  {
    "COMPOUND": "C=CC[C@@]12N=C(c3ccc(OCCCO)cc3)O[C@@H]1c1ccccc1N(C)C2=O",
    "CATEGORY LABEL": "low range"
  },
  {
    "COMPOUND": "C=C(C(=O)CC[C@@H](OC(=O)c1cccnc1)c1ccccc1OCCO)C(C)C",
    "CATEGORY LABEL": "mid range"
  },
  {
    "COMPOUND": "CCN(CC)c1ccc(N2CC=CC34O[C@@H]5C=CCCOC(=O)C5[C@H]3C(=O)N(CCCCCCO)[C@@H]4C2=O)cc1 (some centres undefined)",
    "CATEGORY LABEL": "low range"
  },
  {
    "COMPOUND": "COC(=O)[C@@]1(Cc2ccccc2)[C@H]2c3cc(C(=O)N(C)C)n(Cc4ccsc4Br)c3C[C@H]2CN1C(=O)c1ccccc1",
    "CATEGORY LABEL": "high range"
  },
  {
    "COMPOUND": "COC(=O)C(CC#Cc1ccc2c(c1)[C@]1(C(=O)N2)[C@H](C(=O)Nc2nc3ccccc3s2)[C@H]2C(=O)O[C@H](c3ccccc3)[C@H](c3ccccc3)N2[C@@H]1c1ccc(O)cc1)C(=O)OC",
    "CATEGORY LABEL": "mid range"
  },
  {
    "COMPOUND": "CCC[C@@H]1C[C@@]1(CCC)[C@@H](NC(=O)c1ccccc1)c1cccc(Cl)c1",
    "CATEGORY LABEL": "high range"
  },
  {
    "COMPOUND": "CC1(C)[C@@H]2CC(C(O)C3C=CC4C(=O)N(Cc5ccccc5)C(=O)C4N3n3cnnc3)=C[C@H]1C2 (some centres undefined)",
    "CATEGORY LABEL": "high range"
  },
  {
    "COMPOUND": "COc1cc(C(O)C2C=CC3C(=O)NC(=O)C3N2Nc2ccccn2)cc(OC)c1OC (centres undefined)",
    "CATEGORY LABEL": "high range"
  },
  {
    "COMPOUND": "NC(=O)NCC#Cc1ccc2c(c1)[C@]1(C(=O)N2)[C@H](C(N)=O)[C@H]2C(=O)O[C@H](c3ccccc3)[C@H](c3ccccc3)N2[C@@H]1c1ccc(O)cc1",
    "CATEGORY LABEL": "low range"
  },
  {
    "COMPOUND": "O=C(CS)NCCCCCCNC(=O)[C@@H]1C[C@@H]2C(=O)NCC(=O)N2[C@@H]1c1cccc(OCCO)c1",
    "CATEGORY LABEL": "mid range"
  },
  {
    "COMPOUND": "CCOC(=O)C1=CC[C@@H](c2ccccc2)N(S(=O)(=O)c2ccc(C)cc2)[C@H]1c1ccccc1C",
    "CATEGORY LABEL": "high range"
  },
  {
    "COMPOUND": "COC(=O)[C@@]1(Cc2ccc(F)cc2)[C@H]2c3cc(C(=O)N(C)C)n(Cc4ccc(Cl)c(C(F)(F)F)c4)c3C[C@H]2CN1C(=O)c1ccccc1",
    "CATEGORY LABEL": "high range"
  },
  {
    "COMPOUND": "COCCOC(=O)N1C(=O)[C@@]2(c3cc(C#CC4(O)CCCCCC4)ccc31)[C@H](c1ccccc1OCCO)N1[C@H](c3ccccc3)[C@H](c3ccccc3)OC(=O)[C@H]1[C@@H]2C(=O)N1CCN(c2ncccn2)CC1",
    "CATEGORY LABEL": "high range"
  },
  {
    "COMPOUND": "CC(C)C(=C=CC[C@@H](O)c1ccc(OCCO)cc1)C[C@@H](O)COCc1ccccc1",
    "CATEGORY LABEL": "low range"
  },
  {
    "COMPOUND": "C=CCOC(=O)[C@@H]1[C@H]2C(=O)O[C@H](c3ccccc3)[C@H](c3ccccc3)N2[C@H](c2ccc(OCCOC(=O)[C@H]3C[C@H]4C(=O)N5CCC[C@H]5C(=O)N4[C@H]3c3ccc(O)cc3)cc2)[C@@]12C(=O)Nc1ccc(I)cc12",
    "CATEGORY LABEL": "mid range"
  },
  {
    "COMPOUND": "COC(=O)[C@@]1(Cc2ccc(OC)cc2)[C@@H]2C(=CC(=O)[C@H]2CC(=O)C(=O)N2CCCC2)CN1C(=O)c1ccccc1",
    "CATEGORY LABEL": "mid range"
  },
  {
    "COMPOUND": "C=C(CCCC)/C(=C/C[C@@H](OC(=O)c1ccncc1)c1ccc(OCCO)cc1)c1cc(C(=O)OC)ccc1OC",
    "CATEGORY LABEL": "mid range"
  },
  {
    "COMPOUND": "C=C[C@H](C)[C@@H](OC(=O)Nc1ccc(OC)cc1)c1ccc(O)c2ccccc12",
    "CATEGORY LABEL": "low range"
  }
]
